- ASSAY_SYSTEM: UniProtKB Q96EB6
- PROTOCOL_DETAILS: Mass spectrometry based assay to identify modulators of SIRT1 activity (deacetylation of p53-based acetylated peptide substrate)
- Assay type: biochemical
- MEASUREMENT_SETUP: SIRT1 activation
ASSAY_METRIC: EC1.5

INSERT INTO assay_data (compound, assay_system, recorded_value) VALUES
  ('Cc1csc(NC(=O)N2CCOc3c(C)cc(-c4cccc(Cl)c4)nc32)n1 [Compound 684]', 'UniProtKB Q96EB6', 'A (EC1.5<1.0 μM)'),
  ('O=C(Nc1ncccn1)N1CCCc2ccc(-c3cccc(C(F)(F)F)c3)nc21 [Compound 666]', 'UniProtKB Q96EB6', 'A (EC1.5<1.0 μM)'),
  ('Cc1ccc(NC(=O)N2CCOc3ccc(-c4cccc(C(F)(F)F)c4)nc32)cn1 [Compound 554]', 'UniProtKB Q96EB6', 'A (EC1.5<1.0 μM)'),
  ('Cc1ccc(-c2ccc3c(n2)N(C(=O)Nc2cccc(OC[C@H](O)CO)n2)CCO3)cn1 [Compound 694]', 'UniProtKB Q96EB6', 'B (EC1.5 1-25 μM)'),
  ('O=C(Nc1ccnc(N2CCC2)c1)N1CCCc2ccc(-c3cccc(Cl)c3)nc21 [Compound 617]', 'UniProtKB Q96EB6', 'A (EC1.5<1.0 μM)'),
  ('O=C(Nc1ncccn1)N1CCCOc2ccc(-c3cccc(C(F)(F)F)c3)nc21 [Compound 643]', 'UniProtKB Q96EB6', 'B (EC1.5 1-25 μM)'),
  ('Cc1cc(NC(=O)N2CC(C)(C)Oc3ccc(-c4cccc(N(C)C)c4)nc32)cc(C)n1 [Compound 597]', 'UniProtKB Q96EB6', 'A (EC1.5<1.0 μM)');

* * *

This listing pairs molecules with measured Emax.
- ASSAY_SYSTEM: SIRT1 (Homo sapiens, UniProt Q96EB6)
- Sequence (Q96EB6 1-747): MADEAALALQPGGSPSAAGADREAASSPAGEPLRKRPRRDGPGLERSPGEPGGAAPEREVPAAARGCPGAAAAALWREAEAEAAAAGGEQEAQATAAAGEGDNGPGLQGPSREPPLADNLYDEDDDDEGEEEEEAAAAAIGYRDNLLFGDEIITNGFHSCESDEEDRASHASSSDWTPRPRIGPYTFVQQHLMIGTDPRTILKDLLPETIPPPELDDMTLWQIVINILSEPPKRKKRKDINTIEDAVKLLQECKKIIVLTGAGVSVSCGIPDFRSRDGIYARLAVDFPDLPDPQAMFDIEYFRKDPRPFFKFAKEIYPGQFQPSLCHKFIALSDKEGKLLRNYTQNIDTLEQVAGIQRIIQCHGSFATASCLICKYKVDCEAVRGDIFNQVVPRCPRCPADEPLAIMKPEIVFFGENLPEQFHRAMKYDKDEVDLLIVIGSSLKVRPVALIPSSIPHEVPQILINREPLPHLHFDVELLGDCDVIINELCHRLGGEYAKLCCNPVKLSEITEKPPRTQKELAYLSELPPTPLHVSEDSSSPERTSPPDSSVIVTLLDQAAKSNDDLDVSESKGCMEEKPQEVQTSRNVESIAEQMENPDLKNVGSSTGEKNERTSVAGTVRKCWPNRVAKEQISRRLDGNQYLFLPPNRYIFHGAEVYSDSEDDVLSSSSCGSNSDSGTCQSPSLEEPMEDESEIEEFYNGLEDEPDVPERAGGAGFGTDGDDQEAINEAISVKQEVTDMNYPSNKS
- PROTOCOL_DETAILS: Mass spectrometry based assay to identify modulators of SIRT1 activity (deacetylation of p53-based acetylated peptide substrate)
- Type: biochemical
- MEASUREMENT_SETUP: 25 min, SIRT1 activation, read-out: % FOLD ACT. (percent maximum fold activation)
ASSAY_METRIC: Emax

INSERT INTO results (molecule, recorded_value) VALUES
  ('O=C(Nc1ccnc(OCC(O)CO)n1)N1CCCc2ccc(-c3cccc(C(F)(F)F)c3)nc21 (centres unmarked) [Compound 639]', '> 200%'),
  ('O=C(Nc1cccc(N2CCC2)n1)N1CCOc2ccc(-c3cccc(C(F)(F)F)c3)nc21 [Compound 512]', '> 200%'),
  ('O=C(Nc1ccc(F)cn1)N1CCCCc2ccc(-c3cccc(Cl)c3)nc21 [Compound 735]', '≤ 200%'),
  ('CN(C)c1cccc(-c2ccc3c(n2)N(C(=O)Nc2cccc(OC[C@H](O)CO)n2)CCC3)c1 [Compound 699]', '> 200%'),
  ('O=C(Nc1ncccc1F)N1CCOc2ccc(-c3cccc(C(F)(F)F)c3)nc21 [Compound 568]', '> 200%'),
  ('O=C(Nc1ncc(CN2CCCC2)s1)N1CCOc2ccc(-c3cccc(C(F)(F)F)c3)nc21 [Compound 505]', '≤ 200%'),
  ('Cc1cc(-c2cccc(Cl)c2)nc2c1OCCN2C(=O)Nc1ccncc1 [Compound 686]', '> 200%'),
  ('COc1cccc(-c2ccc3c(n2)N(C(=O)Nc2ccncn2)CCO3)c1 [Compound 515]', '> 200%');

Provenance of the data: patent US9556201B2
